Reference for the values: patent US10758534B2

- test_system: F508del (Homo sapiens, UniProt P13569, DEL508-508)
- Construct: expressed in transfected cells
- Sequence (P13569 with tags, fused parts or gaps DEL508-508): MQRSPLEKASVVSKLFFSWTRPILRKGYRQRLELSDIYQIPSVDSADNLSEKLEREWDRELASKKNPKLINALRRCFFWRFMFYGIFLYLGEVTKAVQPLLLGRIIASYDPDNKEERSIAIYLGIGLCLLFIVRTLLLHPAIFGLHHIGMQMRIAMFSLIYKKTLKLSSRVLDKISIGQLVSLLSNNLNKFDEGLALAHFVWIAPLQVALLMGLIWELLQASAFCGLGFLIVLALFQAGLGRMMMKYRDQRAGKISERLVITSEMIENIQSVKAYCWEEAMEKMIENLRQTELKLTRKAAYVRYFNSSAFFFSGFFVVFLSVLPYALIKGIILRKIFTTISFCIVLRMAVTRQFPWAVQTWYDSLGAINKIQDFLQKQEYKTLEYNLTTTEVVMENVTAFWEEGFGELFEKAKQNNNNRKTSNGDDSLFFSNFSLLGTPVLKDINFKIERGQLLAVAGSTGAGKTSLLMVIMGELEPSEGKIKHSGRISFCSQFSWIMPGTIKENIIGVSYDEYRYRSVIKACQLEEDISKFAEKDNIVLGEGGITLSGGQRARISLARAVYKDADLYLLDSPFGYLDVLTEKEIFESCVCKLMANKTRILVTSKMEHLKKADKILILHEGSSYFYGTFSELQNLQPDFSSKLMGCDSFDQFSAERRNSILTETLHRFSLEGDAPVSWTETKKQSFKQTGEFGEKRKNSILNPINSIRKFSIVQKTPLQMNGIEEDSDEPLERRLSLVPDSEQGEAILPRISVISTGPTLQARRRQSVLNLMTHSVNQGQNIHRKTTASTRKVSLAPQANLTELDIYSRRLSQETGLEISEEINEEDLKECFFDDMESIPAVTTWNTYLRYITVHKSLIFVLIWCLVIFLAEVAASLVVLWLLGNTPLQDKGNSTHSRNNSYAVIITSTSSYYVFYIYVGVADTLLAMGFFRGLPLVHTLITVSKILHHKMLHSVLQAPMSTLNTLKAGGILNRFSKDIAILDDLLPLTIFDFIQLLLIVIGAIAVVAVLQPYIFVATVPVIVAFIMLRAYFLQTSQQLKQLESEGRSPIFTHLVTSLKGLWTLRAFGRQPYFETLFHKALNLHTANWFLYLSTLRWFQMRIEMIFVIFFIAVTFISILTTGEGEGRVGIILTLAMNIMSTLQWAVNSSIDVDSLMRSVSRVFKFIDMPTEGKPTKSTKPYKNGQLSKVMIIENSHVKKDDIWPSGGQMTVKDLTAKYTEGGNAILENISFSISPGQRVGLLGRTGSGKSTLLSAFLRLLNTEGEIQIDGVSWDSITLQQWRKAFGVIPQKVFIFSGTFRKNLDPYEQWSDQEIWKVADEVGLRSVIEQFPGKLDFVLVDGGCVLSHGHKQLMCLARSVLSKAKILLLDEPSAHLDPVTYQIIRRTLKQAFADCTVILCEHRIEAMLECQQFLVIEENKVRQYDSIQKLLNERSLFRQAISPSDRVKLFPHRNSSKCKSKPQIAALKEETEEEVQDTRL
- assay_info: Protocol 1: membrane potential optical assay (FLIPR III, voltage sensing dye), identification of potentiator compounds
- Format: cell-based
- condition_context: Table 3, compounds of Table 1
measure_name: EC30

In the examples that follow, each entry is paired with its recorded EC30.
CC1CN(c2ncccc2C(=O)NS(=O)(=O)c2cccc(N3Cc4ccccc4C3)n2)C(C)(C)C1 (centres unmarked): +++ (“+++” means <3 uM)
Cc1cc(OC(C)C)ncc1-c1ccc(C(=O)NS(=O)(=O)c2cccc(N)n2)c(N2[C@H](C)CC[C@@H]2C)n1: +++ (“+++” means <3 uM)
COc1ccc(CN(C)c2cccc(S(=O)(=O)NC(=O)c3cccnc3N3CC(C)CC3(C)C)n2)cc1 (centres unmarked): +++ (“+++” means <3 uM)
CCOc1cccc2c1CN(Cc1c(C)cc(C)cc1C)C2(C)C(=O)NS(=O)(=O)c1ccccc1O (centres unmarked): +++ (“+++” means <3 uM)
C[C@@H]1CN(c2nc(C(C)(C)C)c(/C=C/C3CC3)cc2C(=O)NS(=O)(=O)c2cccc(N)n2)C(C)(C)C1: +++ (“+++” means <3 uM)

Reported EC30 for CC(C)Oc1ccc(-c2ccc(C(=O)NS(=O)(=O)c3cccc(N)n3)c(N3CC(C)(C)CC3(C)C)n2)cn1 was +++ (“+++” means <3 uM)

Reported EC30 for CC(C)Oc1ccc(-c2ccc(C(=O)NS(=O)(=O)c3cccc(N)n3)c(N3CCCC3C3CC3)n2)cn1 (centres unmarked) was +++ (“+++” means <3 uM)

Reported EC30 for CC1CN(c2ncccc2C(=O)NS(=O)(=O)c2cccc(OCc3ccc(Cl)cc3Cl)n2)C(C)(C)C1 (centres unmarked) was +++ (“+++” means <3 uM)

Reported EC30 for Cc1cc(C)c(Oc2nc(-c3ccccc3)ccc2C(=O)NS(=O)(=O)c2cccc(N(C)C)n2)c(C)c1 was +++ (“+++” means <3 uM)

---

- test_system: F508del (Homo sapiens, UniProt P13569, DEL508-508)
- Construct: expressed in transfected cells
- assay_info: Protocol 1: membrane potential optical assay (FLIPR III, voltage sensing dye), identification of potentiator compounds
- Assay type: cell-based
- condition_context: Table 3, compounds of Table 1
measure_name: EC30

In the examples that follow, each entry is paired with its recorded EC30.
CCOc1cccc2c1CN(Cc1cc(F)cc(OC)c1)C2(C)C(=O)NS(=O)(=O)c1cccc(F)n1 (stereo not shown) [Compound 1428]: +++ (“+++” means <3 uM)
Cc1ccc(OCC(C)C)nc1-c1ccc(C(=O)NS(=O)(=O)c2cccc(N)n2)c(N2CC(C)CC2(C)C)n1 (stereo not shown) [Compound 1659]: +++ (“+++” means <3 uM)
C[C@@H]1CN(c2nc(C3=CCC(C(F)(F)F)CC3)ccc2C(=O)NS(=O)(=O)c2cccc(N)n2)C(C)(C)C1 (stereo partly shown) [Compound 1664]: +++ (“+++” means <3 uM)
C[C@@H]1CN(c2nc(C3CC3)ccc2C(=O)NS(=O)(=O)c2cccc(N)n2)C(C)(C)C1 [Compound 1627]: +++ (“+++” means <3 uM)

Read the next record carefully.
Reported EC30 for Cc1cc(C)c(Oc2nc(C3=CCC(C(F)(F)F)CC3)ccc2C(=O)NS(=O)(=O)c2cccc(N)n2)c(C)c1 (stereo not shown) [Compound 1402] was +++ (“+++” means <3 uM)
